Assay: Toxicity liver stage against HepG2, at 10uM
Assay type: cell-based
Set-up: test concentration 10 uM, cell line HepG2-A16-CD81EGFP
Conditions: human, HepG2-A16-CD81EGFP cells; read-out: INHIBITION
cytotoxicity at 10 µM listing for selected molecules.
Unit % implied. Number only.

| MOLECULE | cytotoxicity at 10 µM (%) |
| --- | --- |
| O=C(C(C1CC1)C1CC1)N1CCC(n2ccnn2)CC1 | -45.7 |
| Cc1c(NC(=O)NC2CCCC2)cccc1C(=O)N1CCSCC1 | 11.8 |
| C[C@@H]1CN(C2CCN(c3ccccc3F)CC2)CC[C@]1(C)O | -5.32 |

Prompt line: Consider the molecule CN(C)CCn1ccnc1C1CCN(C(=O)CCC(F)(F)F)CC1 and give its measured cytotoxicity at 10 µM.
Response line: -0.734

Prompt line: Give its cytotoxicity at 10 µM value. Item: COCCn1cc(C(=O)N2CCCC2c2cc(C)on2)c2ccccc21 (centres undefined)
Response line: 6.35

Prompt line: Dear colleague, I am looking for the recorded cytotoxicity at 10 µM of the following molecule: O=C(Cn1ncc2ccccc21)Nc1ccnn1CC1CCOC1 (centres undefined)
Response line: 3.03

Prompt line: Look up cytotoxicity at 10 µM: COc1ccc(CN2C[C@@H]3C(CC(=O)N4CCCC4)[C@@H]3C2)cc1 (some centres undefined)
Response line: -13.8

Prompt line: # input molecule: O=C1OCCN1CC(=O)N1C[C@@H]2CC[C@H]1CN(C(=O)c1ccccc1)C2 ; wanted: its cytotoxicity at 10 µM
Response line: 5.46

Prompt line: Give the measured cytotoxicity at 10 µM of c1cc(CNc2ncc(-c3cnccn3)c([C@@H]3CCCO3)n2)ccn1 .
Response line: 8.99

Prompt line: Can you look up the measured cytotoxicity at 10 µM of Fc1ccc(CN2CCCC3(CCN(Cc4ncc[nH]4)C3)C2)cc1F (centres undefined) for me?
Response line: -12

Prompt line: Entry under review: c1cc(-c2ccc3nc(C4CCN(CC5CC5)CC4)nn3c2)ccn1 . Reported cytotoxicity at 10 µM?
Response line: -0.966

Prompt line: cytotoxicity at 10 µM for O=C(c1cccc(Cn2ccnc2)c1)N1CCCC(n2ccnc2)C1 (centres undefined) ?
Response line: -6.61

Prompt line: // cytotoxicity at 10 µM lookup, key: Cc1ccc2c(c1)C(NC(=O)N(C)C)CC21CCN(C(C)C)CC1 (centres undefined)
Response line: -0.493

Prompt line: What does the record list as cytotoxicity at 10 µM for Cc1ccoc1CNC(C)c1nnc2n1CCCC2 (centres undefined) ?
Response line: -12.6

###

Assay: Toxicity liver stage against HepG2, at 10uM
Assay type: cell-based
Design: test concentration 10 uM, cell line HepG2-A16-CD81EGFP
Details: human, HepG2-A16-CD81EGFP cells; read-out: INHIBITION
Collected cytotoxicity at 10 µM values appear next to each entry.
Report as a plain number; the unit % is understood.

| COMPOUND | UNIT_TAG | cytotoxicity at 10 µM |
| --- | --- | --- |
| O=C1NC2(CCNCC2)CC1c1ccncc1 (centres undefined) | % | -60.7 |
| Cc1nc(C)n(CC2CN(c3ncnc4[nH]ccc34)CCO2)n1 (centres undefined) | % | 0.433 |

Prompt line: Looking for the measured cytotoxicity at 10 µM of CCCc1nnc(NC(C)c2ccc(F)cc2)o1 (centres undefined) , can you help?
Response line: 2.08

Prompt line: Suppose we examine the compound Cc1cc(C)n(CCNCc2cc(-c3ccccc3)c[nH]c2=O)n1 ; what cytotoxicity at 10 µM value has been reported?
Response line: -2.47

Prompt line: What value of cytotoxicity at 10 µM has been reported for the following compound? CCc1ccc(C(=O)O)cc1S(=O)(=O)Nc1c(C)ccn(C)c1=O
Response line: 4.28

Prompt line: I would be grateful if you could share the reported cytotoxicity at 10 µM for CC1c2cccn2CCN1S(=O)(=O)N1CCCCCC1 (centres undefined) .
Response line: -2.3

Prompt line: Given the entry CCc1noc(C(C)N(C)CC(=O)Nc2ccccc2Cl)n1 (centres undefined) , report its measured cytotoxicity at 10 µM.
Response line: -0.0195

Prompt line: Would you mind telling me what cytotoxicity at 10 µM value was observed for CC(=O)N1CCC2(C1)CN(C(=O)C1CCOC1)C2 (centres undefined) ?
Response line: 4.88

Prompt line: # lookup: cytotoxicity at 10 µM of CC(C)N1[C@H](Cn2cncn2)C[C@@H]2CN(Cc3ccsc3)CC[C@@H]21
Response line: -117

src = ChEMBL document CHEMBL4513216
